Tested on: A2780/Taxol
assay-notes: Cytotoxicity against human A2780T cells assessed as reduction in cell viability at 10 uM incubated for 48 hrs by MTT assay
Type: cell-based
value-type: Activity

[[record]]
structure_string = "CCCc1ccc(C(=O)OCc2c(OC)ccc3c(=O)cc(CC)oc23)cc1"
value_type = "Activity"
experimental_result = "Toxic"

[[record]]
structure_string = "CCc1cc(=O)c2ccc(OC)c(COC(=O)/C=C/c3ccc(OC)cc3)c2o1"
value_type = "Activity"
experimental_result = "Toxic"

[[record]]
structure_string = "CCOc1ccc2c(=O)cc(CC)oc2c1COC(=O)c1cc(OC)c(OC)cc1OC"
value_type = "Activity"
experimental_result = "Non-Toxic"

[[record]]
structure_string = "CCc1cc(=O)c2ccc(OC)c(COC(=O)Cc3cc(OC)c(OC)c(OC)c3)c2o1"
value_type = "Activity"
experimental_result = "Toxic"

[[record]]
structure_string = "CCc1cc(=O)c2ccc(OC)c(COC(=O)/C=C/c3ccccc3)c2o1"
value_type = "Activity"
experimental_result = "Non-Toxic"

[[record]]
structure_string = "CCc1cc(=O)c2ccc(OC)c(COC(=O)c3cc([N+](=O)[O-])ccc3Cl)c2o1"
value_type = "Activity"
experimental_result = "Non-Toxic"

[[record]]
structure_string = "CCc1cc(=O)c2ccc(OC)c(COC(=O)c3ccc(N)c(C)c3)c2o1"
value_type = "Activity"
experimental_result = "Non-Toxic"

[[record]]
structure_string = "CCc1cc(=O)c2ccc(OC)c(COC(=O)c3ccc(F)cc3)c2o1"
value_type = "Activity"
experimental_result = "Non-Toxic"

[[record]]
structure_string = "CCc1cc(=O)c2ccc(OC(C)C)c(COC(=O)c3ccc(C#N)cc3)c2o1"
value_type = "Activity"
experimental_result = "Toxic"

[[record]]
structure_string = "CCc1cc(=O)c2ccc(OC)c(COC(=O)c3ccc(OC)c(OC)c3)c2o1"
value_type = "Activity"
experimental_result = "Toxic"


====

Tested on: HUVEC
assay-notes: Cytotoxicity against human HUVEC cells assessed as reduction in cell viability at 10 uM incubated for 48 hrs by MTT assay
Assay type: cell-based
value-type: Activity

[[record]]
structure_string = "CCOc1ccc2c(=O)cc(CC)oc2c1COC(=O)/C=C/c1ccc(OC)cc1"
experimental_result = "Non-Toxic"

[[record]]
structure_string = "CCc1cc(=O)c2ccc(OC(C)C)c(COC(=O)/C=C/c3ccc(OC)cc3)c2o1"
experimental_result = "Non-Toxic"

[[record]]
structure_string = "CCc1cc(=O)c2ccc(OC)c(COC(=O)/C=C/c3ccc(Cl)cc3)c2o1"
experimental_result = "Non-Toxic"

[[record]]
structure_string = "CCc1cc(=O)c2ccc(OC)c(COC(=O)c3c(F)cccc3F)c2o1"
experimental_result = "Non-Toxic"

[[record]]
structure_string = "CCc1cc(=O)c2ccc(OC)c(COC(=O)c3ccc(OC)c(OC)c3)c2o1"
experimental_result = "Non-Toxic"

[[record]]
structure_string = "CCc1cc(=O)c2ccc(OC)c(COC(=O)c3ccccc3[N+](=O)[O-])c2o1"
experimental_result = "Non-Toxic"

[[record]]
structure_string = "CCOc1ccc2c(=O)cc(CC)oc2c1COC(=O)c1ccc(C#N)cc1"
experimental_result = "Non-Toxic"

[[record]]
structure_string = "CCc1cc(=O)c2ccc(OC)c(COC(=O)c3cc(OC)c(OC)c(OC)c3)c2o1"
experimental_result = "Non-Toxic"

[[record]]
structure_string = "CCOc1ccc2c(=O)cc(CC)oc2c1COC(=O)c1cc(OC)c(OC)cc1OC"
experimental_result = "Non-Toxic"

[[record]]
structure_string = "CCc1cc(=O)c2ccc(OC)c(COC(=O)c3cccc(OC)c3)c2o1"
experimental_result = "Non-Toxic"


====

System: A2780/Taxol
assay-notes: Cytotoxicity against human A2780T cells assessed as reduction in cell viability at 10 uM incubated for 48 hrs by MTT assay
Format: cell-based
value-type: Activity

[[record]]
structure_string = "CCOc1ccc2c(=O)cc(CC)oc2c1COC(=O)c1cc(OC)c(OC)c(OC)c1"
value_type = "Activity"
experimental_result = "Non-Toxic"

[[record]]
structure_string = "CCOc1ccc2c(=O)cc(CC)oc2c1COC(=O)/C=C/c1ccc(OC)cc1"
value_type = "Activity"
experimental_result = "Toxic"

[[record]]
structure_string = "CCc1cc(=O)c2ccc(OC)c(COC(=O)Cc3ccccc3C)c2o1"
value_type = "Activity"
experimental_result = "Non-Toxic"

[[record]]
structure_string = "CCc1cc(=O)c2ccc(OC(C)C)c(COC(=O)/C=C/c3ccc(OC)cc3)c2o1"
value_type = "Activity"
experimental_result = "Non-Toxic"

[[record]]
structure_string = "CCc1cc(=O)c2ccc(OC)c(COC(=O)c3ccccc3Br)c2o1"
value_type = "Activity"
experimental_result = "Toxic"

[[record]]
structure_string = "CCOc1ccc2c(=O)cc(CC)oc2c1COC(=O)/C=C/c1ccccc1"
value_type = "Activity"
experimental_result = "Non-Toxic"

[[record]]
structure_string = "CCc1cc(=O)c2ccc(OC)c(COC(=O)c3c(F)cccc3F)c2o1"
value_type = "Activity"
experimental_result = "Non-Toxic"

[[record]]
structure_string = "CCc1cc(=O)c2ccc(OC)c(COC(=O)c3cc(OC)c(OC)cc3OC)c2o1"
value_type = "Activity"
experimental_result = "Non-Toxic"

[[record]]
structure_string = "CCc1cc(=O)c2ccc(OC)c(COC(=O)c3ccc(C(C)(C)C)cc3)c2o1"
value_type = "Activity"
experimental_result = "Toxic"

[[record]]
structure_string = "CCc1cc(=O)c2ccc(OC(C)C)c(COC(=O)Cc3cc(OC)c(OC)c(OC)c3)c2o1"
value_type = "Activity"
experimental_result = "Non-Toxic"

[[record]]
structure_string = "CCc1cc(=O)c2ccc(OC)c(COC(=O)c3cc(OC)c(OC)c(OC)c3)c2o1"
value_type = "Activity"
experimental_result = "Non-Toxic"

[[record]]
structure_string = "CCc1cc(=O)c2ccc(OC)c(COC(=O)c3ccc(Cl)c([N+](=O)[O-])c3)c2o1"
value_type = "Activity"
experimental_result = "Non-Toxic"

[[record]]
structure_string = "CCc1cc(=O)c2ccc(OC)c(COC(=O)c3ccc(Cl)cc3Cl)c2o1"
value_type = "Activity"
experimental_result = "Non-Toxic"

[[record]]
structure_string = "CCc1cc(=O)c2ccc(OC)c(COC(=O)Cc3ccc(Cl)cc3)c2o1"
value_type = "Activity"
experimental_result = "Non-Toxic"

[[record]]
structure_string = "CCc1cc(=O)c2ccc(OC)c(COC(=O)c3ccc(C#N)cc3)c2o1"
value_type = "Activity"
experimental_result = "Non-Toxic"

[[record]]
structure_string = "CCc1cc(=O)c2ccc(OC)c(COC(=O)c3cccc(N(C)C)c3)c2o1"
value_type = "Activity"
experimental_result = "Non-Toxic"

[[record]]
structure_string = "CCc1cc(=O)c2ccc(OC)c(COC(=O)c3cccc(OC)c3)c2o1"
value_type = "Activity"
experimental_result = "Non-Toxic"

[[record]]
structure_string = "CCCCCc1ccc(C(=O)OCc2c(OC)ccc3c(=O)cc(CC)oc23)cc1"
value_type = "Activity"
experimental_result = "Non-Toxic"

[[record]]
structure_string = "CCc1cc(=O)c2ccc(OC)c(COC(=O)/C=C/c3ccc(Cl)cc3)c2o1"
value_type = "Activity"
experimental_result = "Non-Toxic"

[[record]]
structure_string = "CCc1cc(=O)c2ccc(OC)c(COC(=O)c3ccccc3[N+](=O)[O-])c2o1"
value_type = "Activity"
experimental_result = "Non-Toxic"

[[record]]
structure_string = "CCOc1ccc2c(=O)cc(CC)oc2c1COC(=O)c1ccc(C#N)cc1"
value_type = "Activity"
experimental_result = "Toxic"


====

Tested on: HUVEC
assay-notes: Cytotoxicity against human HUVEC cells assessed as reduction in cell viability at 10 uM incubated for 48 hrs by MTT assay
Type: cell-based
value-type: Activity

[[record]]
structure_string = "CCOc1ccc2c(=O)cc(CC)oc2c1COC(=O)c1cc(OC)c(OC)c(OC)c1"
assayed_target = "HUVEC"
experimental_result = "Non-Toxic"

[[record]]
structure_string = "CCc1cc(=O)c2ccc(OC)c(COC(=O)/C=C/c3ccc(OC)cc3)c2o1"
assayed_target = "HUVEC"
experimental_result = "Non-Toxic"

[[record]]
structure_string = "CCc1cc(=O)c2ccc(OC)c(COC(=O)c3ccc(C#N)cc3)c2o1"
assayed_target = "HUVEC"
experimental_result = "Non-Toxic"

[[record]]
structure_string = "CCc1cc(=O)c2ccc(OC)c(COC(=O)c3ccc(Cl)c([N+](=O)[O-])c3)c2o1"
assayed_target = "HUVEC"
experimental_result = "Non-Toxic"

[[record]]
structure_string = "CCc1cc(=O)c2ccc(OC(C)C)c(COC(=O)c3cc(OC)c(OC)c(OC)c3)c2o1"
assayed_target = "HUVEC"
experimental_result = "Non-Toxic"

